# Tgt: HCV NS5B polymerase 1a-H77-C316Y (Hepatitis C virus genotype 1a, UniProt P27958, C2736Y)
# Construct: six-histidine tag
# Sequence (P27958 2421-2990 C2736Y): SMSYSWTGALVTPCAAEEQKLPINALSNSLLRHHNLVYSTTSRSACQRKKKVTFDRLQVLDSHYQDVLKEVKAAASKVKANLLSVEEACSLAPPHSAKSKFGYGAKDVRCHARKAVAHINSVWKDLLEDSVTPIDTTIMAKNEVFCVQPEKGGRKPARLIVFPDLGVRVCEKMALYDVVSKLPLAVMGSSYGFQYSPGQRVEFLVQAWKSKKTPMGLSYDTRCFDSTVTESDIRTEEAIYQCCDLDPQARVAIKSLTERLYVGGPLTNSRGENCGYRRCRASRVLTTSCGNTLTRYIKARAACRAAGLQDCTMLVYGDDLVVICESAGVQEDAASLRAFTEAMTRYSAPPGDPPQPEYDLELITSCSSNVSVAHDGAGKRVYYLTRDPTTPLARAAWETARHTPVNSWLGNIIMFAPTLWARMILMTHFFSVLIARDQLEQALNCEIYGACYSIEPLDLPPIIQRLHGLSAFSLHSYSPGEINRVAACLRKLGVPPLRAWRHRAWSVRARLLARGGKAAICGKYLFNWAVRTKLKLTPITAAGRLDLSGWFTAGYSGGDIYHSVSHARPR
# Assay Text: biochemical
Field: class. Source value: IC50. Ranges: bin 1 = under 70 nM, bin 2 = from 70 nM up to 100 nM, bin 3 = 100 nM and over

Compound: COCCN(c1cc2oc(-c3ccc(F)cc3)c(-c3ncc[nH]3)c2cc1C1CC1)S(C)(=O)=O
Label: bin 3
--
Compound: Cc1c[nH]c(-c2c(-c3ccc(F)cc3)oc3cc(N(CCCCO)S(C)(=O)=O)c(C4CC4)cc23)n1
Label: bin 3
--
Compound: CS(=O)(=O)N(CCCc1ccccc1)c1cc2oc(-c3ccc(F)cc3)c(-c3ncc[nH]3)c2cc1C1CC1
Label: bin 1
--
Compound: CC(C)(O)C(O)CCN(c1cc2oc(-c3ccc(F)cc3)c(C3=NOCN3)c2cc1C1CC1)S(C)(=O)=O (stereo not drawn)
Label: bin 1
--
Compound: CS(=O)(=O)N(CCN1CCOCC1)c1cc2oc(-c3ccc(F)cc3)c(-c3ncc[nH]3)c2cc1C1CC1
Label: bin 3
--
Compound: CC(C)=CCN(c1cc2oc(-c3ccc(F)cc3)c(-c3ncc[nH]3)c2cc1C1CC1)S(C)(=O)=O
Label: bin 3
--
Compound: CCN(CC)CCCN(c1cc2oc(-c3ccc(F)cc3)c(C3=NOCCN3)c2cc1C1CC1)S(C)(=O)=O
Label: bin 3
--
Compound: CCS(=O)(=O)CCN(c1cc2oc(-c3ccc(F)cc3)c(C3=NOCCN3)c2cc1C1CC1)S(C)(=O)=O
Label: bin 1
--
Compound: Cc1cnc(-c2c(-c3ccc(F)cc3)oc3cc(N(CCC(C)C)S(C)(=O)=O)c(C4CC4)cc23)[nH]1
Label: bin 2
--
Compound: CS(=O)(=O)N(CCCOc1ccccc1)c1cc2oc(-c3ccc(F)cc3)c(-c3ncc[nH]3)c2cc1C1CC1
Label: bin 3
--
Compound: CS(=O)(=O)N(CCC1CCOCC1)c1cc2oc(-c3ccc(F)cc3)c(-c3ncc[nH]3)c2cc1C1CC1
Label: bin 2
--
Compound: CS(=O)(=O)CCCN(c1cc2oc(-c3ccc(F)cc3)c(C3=NOCCN3)c2cc1C1CC1)S(C)(=O)=O
Label: bin 1

Source: patent US20160355530A1
